B1: RSPH3 (parent)
chain: MTVKPAKAASLARNLAKRRRTYLG

- Variants of: B1
- test-protocol: protein stability index of a GFP-peptide fusion (GPS, HEK-293T) (PSI 1-6); higher = more stable;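 note: lentivirally expressed fusions sorted by FACS into six bins by GFP to DsRed ratio, PSI derived from sequencing read proportions per bin multiplied by bin number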
- stated-conditions: c terminus: a fixed tail appended

variant-identifier: K7P
protein stability index: 3.18

variant-identifier: L23Y
protein stability index: 3

variant-identifier: A12L
protein stability index: 1.34

variant-identifier: A6C
protein stability index: 2.72

variant-identifier: R20V
protein stability index: 1.63

variant-identifier: K17R
protein stability index: 3.04

variant-identifier: K7E
protein stability index: 3.59

variant-identifier: K4P
protein stability index: 2.94

variant-identifier: L11C
protein stability index: 2.54
